B1: library; numbered along this chain (parent)
chain: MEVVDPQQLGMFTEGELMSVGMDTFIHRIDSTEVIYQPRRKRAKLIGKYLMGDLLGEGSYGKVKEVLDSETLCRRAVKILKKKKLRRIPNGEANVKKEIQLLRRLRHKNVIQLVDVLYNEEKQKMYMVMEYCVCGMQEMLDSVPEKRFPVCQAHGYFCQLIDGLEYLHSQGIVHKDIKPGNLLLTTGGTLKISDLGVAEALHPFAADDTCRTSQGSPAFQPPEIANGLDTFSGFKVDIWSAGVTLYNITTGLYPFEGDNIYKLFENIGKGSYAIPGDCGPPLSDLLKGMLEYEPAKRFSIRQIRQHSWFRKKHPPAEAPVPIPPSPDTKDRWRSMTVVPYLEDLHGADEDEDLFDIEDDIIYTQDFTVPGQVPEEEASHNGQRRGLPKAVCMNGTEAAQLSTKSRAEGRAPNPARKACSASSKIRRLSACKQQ

Variants of: B1
ASSAY_INFO: STK11 functional score (HeLa growth suppression), rescaled enrichment; synonymous median = 1, nonsense median = 0 (normalised score)
TEST_PARAMETERS: with HeLa; variant type: missense
Answer -1 if STK11 functional score is under 1, and 1 if it is 1 or more.

> print(dat)
    variant.identifier  category.label
 1               R301G               1
 2               V150S              -1
 3               A225S               1
 4               A398D               1
 5               S419N               1
 6               E357G               1
 7               G171R               1
 8               G196V               1
 9               N266K              -1
10               S169A               1
11               K416Q               1
12               A347G               1
13                L72R              -1
14               Y292P               1
15               E223Q              -1
16               R384M               1
17               N259R               1
18               P281M               1
19               L341D               1
20               I248R              -1
21               E317N               1
22               V114D               1
23               K191A               1
24               T249W              -1
25               L105P              -1
26                L54H               1
27               D207L              -1
28               I224F               1
29                A76V               1
30               D284S               1
31               D365M               1
32               S325Q               1
33                I99Q              -1
34               V243M              -1
35               F148M               1
36               Q382M               1
37                 L9P               1
38               F354C              -1
39               T336H               1
40               I161N              -1
41                L45W               1
42               P281Q               1
43               N259T               1
